# Target Or System: SARS-CoV-2 RBD (residues Arg319–Phe541) (SARS-CoV-2, UniProt P0DTC2)
# Test: SPR
# Measurement Parameters: both partners purified
Measurement Name: pKd
Here pKd is given on a logarithmic scale as minus log10 of the concentration in mol/L.

Some binders with recorded pKd:
P2B-1A10 (full-length IgG) (antibody, V domains shown) VH: EVQLVESGGGLIQPGGSLRLSCAASGFTVSSNYMSWVRQAPGKGLEWVSVIYSGGSTYYADSVKGRFTISRDNSKNTLYLQMNSLRAEDTAVYYCAREGPKSITGTAFDIWGQGTIVTVSS VL: DIQMTQSPSSLSASVGDRVTITCQASQDISNYFNWYQQKPGKAPKLLIYDASNLETGVPSRFSGSGSGTDFTFTISSLQPEDIATYYCQQYDNLPMYTFGQGTKLEIK | 7.29
P5A-1B8 (full-length IgG) (antibody, V domains shown) VH: EVQLVESGGGLIQPGGSLRLSCAASGFTVSSNYMSWVRQAPGKGLEWVSVIYPGGSTFYADSVKGRFTISRDNSKNTLYLQMNSLRAEDTAVYYCARETLAFDYWGQGTLVTVSS VL: DIQLTQSPSFLSASVGDRVTITCRASQGISSYLAWYQQKPGKAPKLLIYAASTLQSGVPSRFSGSGSGTEFTLTISSLQPEDFATYYCQQLNSYPPAFGGGTKVEIK | 8.96

Return reported pKd. Input binder: P5A-2G7 (full-length IgG) (antibody, V domains shown) VH: QVQLQESGPGLVKPSETLSLTCTVSGDSVSSGSYYWSWIRQPPGKGLEWIGYIYYSGSTNYNPSLKSRVTISVDTSKNQFSLKLSSVTAADTAVYYCARERCYYGSGRAPRCVWFDPWGQGTLVTVSS VL: QSALTQPASVSGSPGQSITISCTGTSSDVGGYNYVSWYQQHPGKAPKLMIYDVSNRPSGVSNRFSGSKSGNTASLTISGLQAEDEADYYCSSYTSSSTLVVFGGGTKLTVL 8.45
